Procedure Summary: in vivo
Test Settings: male, SD, rat, po, 2 mg/kg, Tmax, individual rat

Compound | Tmax
Nc1ncn([C@H]2C[C@H](O)[C@@H](CO)S2)c(=O)n1 [Form F, 5-Aza-4′-thio-2′-deoxycytidine] | 1 h

###

Procedure Summary: Thermodynamic solubility, shake-flask method
Type: physicochemical
Test Settings: organic solvent or mixture, thermodynamic from solid; 2,2,2,-trifluoroethanol; RT, 24 hours
Measurement Kind: solubility at 24 h (µg/mL)

Smiles Structure | Result Number
Nc1ncn([C@H]2C[C@H](O)[C@@H](CO)S2)c(=O)n1 | 4100

###

Procedure Summary: Pharmacokinetics of capsules in male SD rats
Test Settings: capsule, 2 mg/kg, mean of two male SD rats

Molecule | AUClast/D, Mean / ng·h/mL per mg/kg
Nc1ncn([C@H]2C[C@H](O)[C@@H](CO)S2)c(=O)n1 [Form A, 5-Aza-4′-thio-2′-deoxycytidine] | 2870
Nc1ncn([C@H]2C[C@H](O)[C@@H](CO)S2)c(=O)n1 [SM, 5-Aza-4′-thio-2′-deoxycytidine] | 2210

###

Procedure Summary: Pharmacokinetics of capsules in male SD rats
Test Settings: male, SD, rat, plasma, oral, 2 mg/kg, Concentration (plasma), Mean, 1 h, capsule, mean of two male SD rats

Smiles Structure | concentration at 1 h [ng/mL]
Nc1ncn([C@H]2C[C@H](O)[C@@H](CO)S2)c(=O)n1 | 466

###

Procedure Summary: Pharmacokinetics of capsules in male SD rats
Test Settings: male, SD, rat, plasma, po, 2 mg/kg, T1/2, individual rat, capsule, male SD rat
Measurement Kind: half-life (h)

Molecule | Result Number
Nc1ncn([C@H]2C[C@H](O)[C@@H](CO)S2)c(=O)n1 [SM, 5-Aza-4′-thio-2′-deoxycytidine] | 2.72
